- systemName: Dual specificity tyrosine-phosphorylation-regulated kinase 1A (Rattus norvegicus, UniProt Q63470)
- Assay type: biochemical, Homo sapiens
Active and inactive are the calls of the source.
quantityName: AC50

For COc1ccc(/C=C2\SC(=O)NC2=S)cc1OC , what is its reported AC50?
9550 nM (active)

For Cc1[nH]nc2c1-c1nc3ccccc3nc1C(C)(C)C2 , what is its reported AC50?
2380 nM (active)

For O=C(Nc1nc2ccc(Cl)cc2s1)C1CCCO1 (stereo not given) , what is its reported AC50?
2010 nM (active)

For CCn1nc(/C=C/c2ccccc2)nc2c(=O)n(C)c(=O)nc1-2 , what is its reported AC50?
281 nM (active)

For COc1cc(/C=C2\SC(=S)N(NC(=O)c3cccc(O)c3)C2=O)ccc1O , what is its reported AC50?
6230 nM (active)
